molecular target: NaV1.8 (Homo sapiens); experiment: VIPR optical membrane potential assay, NaV1.8 (other subtypes in an analogous mode); format: cell-based; conditions: Table 9, NaV 1.8 receptors
Sequence (Q9Y5Y9 whole entry): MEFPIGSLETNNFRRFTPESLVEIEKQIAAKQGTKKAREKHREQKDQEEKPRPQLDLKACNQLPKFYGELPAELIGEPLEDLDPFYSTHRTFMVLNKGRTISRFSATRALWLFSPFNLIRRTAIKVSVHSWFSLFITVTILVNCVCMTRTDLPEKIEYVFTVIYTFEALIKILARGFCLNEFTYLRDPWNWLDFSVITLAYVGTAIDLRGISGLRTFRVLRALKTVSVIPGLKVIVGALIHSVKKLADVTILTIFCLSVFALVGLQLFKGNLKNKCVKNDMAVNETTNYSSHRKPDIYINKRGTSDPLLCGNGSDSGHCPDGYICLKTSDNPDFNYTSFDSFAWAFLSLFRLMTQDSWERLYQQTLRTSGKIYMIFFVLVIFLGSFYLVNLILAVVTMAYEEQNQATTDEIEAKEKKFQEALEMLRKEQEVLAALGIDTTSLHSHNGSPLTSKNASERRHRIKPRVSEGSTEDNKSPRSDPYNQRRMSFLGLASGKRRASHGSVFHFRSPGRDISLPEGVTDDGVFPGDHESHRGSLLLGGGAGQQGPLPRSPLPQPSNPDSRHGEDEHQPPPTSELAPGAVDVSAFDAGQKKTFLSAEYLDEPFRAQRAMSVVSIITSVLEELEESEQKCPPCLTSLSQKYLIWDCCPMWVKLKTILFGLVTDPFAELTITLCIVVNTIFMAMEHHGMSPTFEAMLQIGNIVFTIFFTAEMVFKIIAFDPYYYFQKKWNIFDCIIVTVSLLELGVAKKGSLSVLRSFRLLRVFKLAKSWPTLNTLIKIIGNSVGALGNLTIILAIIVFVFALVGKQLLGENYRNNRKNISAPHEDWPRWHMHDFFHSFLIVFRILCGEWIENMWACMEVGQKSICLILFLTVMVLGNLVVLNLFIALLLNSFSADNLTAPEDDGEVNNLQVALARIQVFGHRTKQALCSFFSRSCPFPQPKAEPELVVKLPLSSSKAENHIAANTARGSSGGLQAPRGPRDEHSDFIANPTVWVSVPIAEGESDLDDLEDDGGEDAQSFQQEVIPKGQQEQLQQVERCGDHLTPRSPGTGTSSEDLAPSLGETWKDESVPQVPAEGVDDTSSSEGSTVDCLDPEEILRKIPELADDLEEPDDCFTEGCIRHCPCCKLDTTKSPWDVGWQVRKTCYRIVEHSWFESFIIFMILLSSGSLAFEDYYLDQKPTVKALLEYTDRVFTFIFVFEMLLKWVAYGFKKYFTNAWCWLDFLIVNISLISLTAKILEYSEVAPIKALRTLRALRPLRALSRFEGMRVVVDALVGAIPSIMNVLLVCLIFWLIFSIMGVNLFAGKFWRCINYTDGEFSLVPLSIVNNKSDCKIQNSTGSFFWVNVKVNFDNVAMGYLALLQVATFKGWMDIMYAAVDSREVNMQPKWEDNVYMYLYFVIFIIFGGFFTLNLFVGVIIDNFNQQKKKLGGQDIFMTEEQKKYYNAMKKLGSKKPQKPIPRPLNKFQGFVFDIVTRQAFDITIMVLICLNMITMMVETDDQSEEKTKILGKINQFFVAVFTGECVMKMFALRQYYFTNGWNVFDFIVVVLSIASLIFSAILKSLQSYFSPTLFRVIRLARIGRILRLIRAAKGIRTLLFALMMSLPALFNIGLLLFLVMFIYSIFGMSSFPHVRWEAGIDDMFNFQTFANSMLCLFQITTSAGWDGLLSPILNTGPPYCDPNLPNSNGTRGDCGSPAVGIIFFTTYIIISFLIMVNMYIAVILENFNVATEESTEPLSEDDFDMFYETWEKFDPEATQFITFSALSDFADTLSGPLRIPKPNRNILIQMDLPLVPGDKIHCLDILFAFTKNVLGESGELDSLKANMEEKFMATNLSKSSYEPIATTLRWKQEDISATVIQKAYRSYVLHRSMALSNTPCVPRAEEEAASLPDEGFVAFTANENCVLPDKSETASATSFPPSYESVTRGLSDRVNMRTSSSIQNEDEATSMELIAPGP
pIC50: −log10 of the molar value.

molecule	pIC50
CC(C)N(Cc1ccccc1)C(=O)c1cnc(Nc2ccc3c(c2)OCO3)nc1-c1ccccc1F [compound 51]	< 5.00
CCC(COC)N(Cc1ccccc1)C(=O)c1cnc(N2CCOCC2)nc1-c1ccccc1F (stereo not shown) [compound 113]	< 5.00
Cc1cccc(CN(C(=O)c2cnc(N3CCOCC3)nc2-c2ccccc2F)C2CC2)c1 [compound 163]	< 5.00
O=C(c1cnc(N2CCSCC2)nc1-c1ccccc1F)N(Cc1cccc(-c2ccncc2)c1)C1CC1 [compound 204]	< 5.00

* * *

target: CaV2.2 (Homo sapiens); assay: VIPR optical membrane potential assay with electrical stimulation, CaV2.2; details: Table 9, CaV 2.2 receptors
Entries and their IC50 values follow.
readout-kind: IC50

molecule	readout-kind	data-value
CC1CN(c2ncc(C(=O)N(Cc3ccccc3)C(C)C)c(-c3ccccc3F)n2)CC(C)O1 (stereo not drawn) [compound 69]	IC50	2 to 10 µM
CCN(C)c1ncc(C(=O)N(Cc2ccccc2)C(C)C)c(-c2ccccc2F)n1 [compound 312]	IC50	2 to 10 µM
O=C(c1cnc(N2CCSCC2)nc1-c1ccccc1F)N(Cc1ccccc1)C1CCCCC1 [compound 47]	IC50	2 to 10 µM
O=C(c1cnc(N2CCSCC2)nc1-c1ccccc1F)N(Cc1ccc2c(c1)CCO2)C1CC1 [compound 30]	IC50	2 to 10 µM
CCC(C)NC(=O)c1cnc(NC2CC3CC(C2C)C3(C)C)nc1-c1ccc(C#N)cc1 (stereo not drawn) [compound 228]	IC50	> 10 µM
CCN(C)c1ncc(C(=O)N(C)C2CCCCC2)c(-c2ccc(C#N)cc2)n1 [compound 227]	IC50	> 10 µM
CCN(Cc1cccc(C)c1)C(=O)c1cnc(NCCCOC)nc1-c1ccccc1F [compound 268]	IC50	> 10 µM
CCN(CCOC)c1ncc(C(=O)N(Cc2cccc(OC)c2)C(C)C)c(-c2ccccc2F)n1 [compound 103]	IC50	< 2 µM
O=C(NC(CN1CCCC1)c1ccccc1)c1cnc(N2CCOCC2)nc1-c1ccccc1F (stereo not drawn) [compound 37]	IC50	> 10 µM
CC1CCN(c2ncc(C(=O)N(C)C3CCCCC3)c(-c3ccc(C#N)cc3)n2)CC1 [compound 241]	IC50	> 10 µM
CCN(C)C(=O)c1cnc(N2CCCC(C(N)=O)C2)nc1-c1ccc(C#N)cc1 (stereo not drawn) [compound 284]	IC50	> 10 µM
O=C(NC1CCCCC1)c1cnc(N2CCOCC2)nc1-c1ccccc1F [compound 196]	IC50	> 10 µM
CC(C)N(C(=O)c1cnc(N2CCCCC2)nc1-c1ccccc1F)c1cccc(C#N)c1 [compound 125]	IC50	2 to 10 µM
CCC(C)NC(=O)c1cnc(N2CCOCC2)nc1-c1ccccc1F (stereo not drawn) [compound 213]	IC50	> 10 µM
CCN(Cc1ccccc1)C(=O)c1cnc(N2CCCC(C(N)=O)C2)nc1-c1ccccc1F (stereo not drawn) [compound 289]	IC50	> 10 µM
COc1ccc(CCNc2ncc(C(=O)N3CCC(C)CC3)c(-c3ccc(C#N)cc3)n2)cc1 [compound 316]	IC50	> 10 µM
CCC(C)NC(=O)c1cnc(NCCc2ccc(Cl)cc2)nc1-c1ccccc1F (stereo not drawn) [compound 305]	IC50	> 10 µM
CC(C)N(Cc1ccc(N2CCCC2)cc1)C(=O)c1cnc(N2CCCCC2)nc1-c1ccccc1F [compound 50]	IC50	2 to 10 µM
O=C(c1cnc(NCC2CCCCC2)nc1-c1ccccc1F)N1CCOCC1 [compound 351]	IC50	> 10 µM
CC(C)N(Cc1ccccc1)C(=O)c1cnc(N2CCSCC2)nc1-c1ccccc1F [compound 98]	IC50	< 2 µM
O=C(NCC1CCCCC1)c1cnc(N2CCOCC2)nc1-c1ccccc1F [compound 328]	IC50	> 10 µM
CC(C)N(C(=O)c1cnc(N2CCCCC2)nc1-c1ccccc1F)C1CCSC1 (stereo not drawn) [compound 149]	IC50	> 10 µM
O=C(c1cnc(N2CCOCC2)nc1-c1ccccc1F)N(Cc1cnc2ccccc2c1)C1CC1 [compound 99]	IC50	> 10 µM
CCCCNc1ncc(C(=O)N2CCC(C)CC2)c(-c2ccc(C#N)cc2)n1 [compound 344]	IC50	> 10 µM
CCC1CCC(C)N(C(=O)c2cnc(NCCCOC)nc2-c2ccc(C#N)cc2)C1 (stereo not drawn) [compound 294]	IC50	> 10 µM
COc1cccc(N(C(=O)c2cnc(N3CCCCC3)nc2-c2ccccc2F)C2CCC2)c1 [compound 116]	IC50	2 to 10 µM
O=C(c1cnc(N2CCOCC2)nc1-c1ccccc1F)N1Cc2ccccc2C1 [compound 187]	IC50	> 10 µM
CC(C)N(C(=O)c1cnc(N2CCOCC2)nc1-c1ccccc1F)c1cccc([N+](=O)[O-])c1 [compound 178]	IC50	> 10 µM
N#Cc1ccc(-c2nc(NCc3ccccc3C(F)(F)F)ncc2C(=O)NCC2CC2)cc1 [compound 248]	IC50	> 10 µM
CC1CCc2ccccc2N1C(=O)c1cnc(N2CCOCC2)nc1-c1ccccc1F (stereo not drawn) [compound 52]	IC50	2 to 10 µM
COc1cccc(N(C(=O)c2cnc(N3CCCCC3)nc2-c2ccccc2F)C2CCCCC2)c1 [compound 127]	IC50	2 to 10 µM
CC(C)N(C(=O)c1cnc(N2CCCCC2)nc1-c1ccccc1Cl)c1cccc(C#N)c1 [compound 101]	IC50	2 to 10 µM
CC1CC(C)CN(C(=O)c2cnc(N3CCOCC3)nc2-c2ccccc2F)C1 (stereo not drawn) [compound 279]	IC50	> 10 µM
